Give Drug uptake for every item shown.
test system: Cerebellum; test: Biodistribution in NMRI mouse cerebellum assessed per gram of tissue at 3.7 MBq/mL, iv after 2 mins by gamma counting; assay type: ADME, organism-based; settings: in vivo
Give the quantity in %, number only.

Look at this compound and give its reported Drug uptake. Cc1ccc2nc(-c3ccc([18F])cc3)sc2c1
5.99

Drug uptake lookup needed for [11CH3]Nc1ccc(-c2nc3ccc(O)cc3s2)cc1 , thanks.
1.6

Quick check: Drug uptake of CNc1ccc2nc(-c3ccc([18F])cc3)sc2c1 ?
11.76

Record request: Drug uptake value, item Nc1ccc2nc(-c3ccc([18F])cc3)sc2c1
15.48

What measured Drug uptake goes with CN(C)c1ccc2nc(-c3ccc([18F])cc3)sc2c1 ?
9.23

---

tested on: Kidney; experiment: Biodistribution in NMRI mouse kidney assessed per gram of tissue at 3.7 MBq/mL, iv after 60 mins by gamma counting; format: ADME, organism-based; conditions: in vivo, 1 h
Exercise: state measured Drug uptake for each of the compounds provided.
Just the number please, in %, no unit attached.

Dear colleague, I am looking for the recorded Drug uptake of the following compound: CN(C)c1ccc2nc(-c3ccc([18F])cc3)sc2c1
6.5

Given Nc1ccc2nc(-c3ccc([18F])cc3)sc2c1 , state its recorded Drug uptake.
1.8

Fill blank: measured Drug uptake of the compound CNc1ccc2nc(-c3ccc([18F])cc3)sc2c1 is ____.
4.6

Which Drug uptake is reported for this compound? [11CH3]Nc1ccc(-c2nc3ccc(O)cc3s2)cc1
9.1

Bench note: what Drug uptake did Cc1ccc2nc(-c3ccc([18F])cc3)sc2c1 show?
3.6

---

Exercise: state measured SUV for each of the molecules provided.
tested on: Heart; test: Drug level in NMRI mouse heart assessed as standard uptake value at 3.7 MBq/mL, iv after 2 mins by gamma counting; assay type: ADME, organism-based; conditions: in vivo

I'd like to know its SUV. The molecule in question is [11CH3]Nc1ccc(-c2nc3ccc(O)cc3s2)cc1 [PITTSBURGH COMPOUND B]
1.5

Requested field: SUV. Item: Cc1ccc2nc(-c3ccc([18F])cc3)sc2c1
2

Give its SUV value. Item: Nc1ccc2nc(-c3ccc([18F])cc3)sc2c1
1.9

# query: SUV of entry CN(C)c1ccc2nc(-c3ccc([18F])cc3)sc2c1
2.7

Tell me the measured SUV of CNc1ccc2nc(-c3ccc([18F])cc3)sc2c1 , please.
2

---

Assignment: determine reported SUV for the given compounds.
tested on: Cerebellum; assay: Drug level in NMRI mouse cerebellum assessed as standard uptake value at 3.7 MBq/mL, iv after 60 mins by gamma counting; format: ADME, organism-based; details: in vivo, 1 h
The answer should be a number; do not append a unit.

Return SUV measured with Cerebellum given this compound: Cc1ccc2nc(-c3ccc([18F])cc3)sc2c1
0.15

Enter reported SUV observed with Cerebellum for Nc1ccc2nc(-c3ccc([18F])cc3)sc2c1
0.42

Find SUV (Cerebellum) for the entry [11CH3]Nc1ccc(-c2nc3ccc(O)cc3s2)cc1 [PITTSBURGH COMPOUND B]
0.11

Request - read-out SUV | tested on Cerebellum | compound CNc1ccc2nc(-c3ccc([18F])cc3)sc2c1
0.44

Record CN(C)c1ccc2nc(-c3ccc([18F])cc3)sc2c1 : what is its SUV with Cerebellum?
0.83

meta.source: ChEMBL document CHEMBL1154674
